All figures here come from PubChem BioAssay (NCATS).

- test_description: Quantitative High-Throughput drug screen in 47 multiple myeloma cell lines against the NCATS MIPE library collection: XG1_PLB cell viability assay (AID 1919866); also: nearly all actives have a fitted effect of over 35% in size
- test_context: CellTiter-Glo ATP, 48 h; series mostly up to 45.8 µM
Results filed as inconclusive are left out. The source made the active and inactive calls. Calls follow the shape of the dose curve; as a rule, active = well fitted cell-killing curve with a large enough effect; inconclusive = small, poorly fitted or top-dose-only effect, or effect the other way; inactive = no such curve, though single readings can be large or run the other way.
Answer with one of the outcomes active, inactive

Q. Answer briefly: the call reported for `Cc1[nH]nc2ccc(-c3cncc(OC[C@@H](N)Cc4ccccc4)c3)cc12` in this assay.
A. active

Q. Answer briefly: the call reported for `CCN(CC)CCCCNc1ncc2cc(-c3cc(OC)cc(OC)c3)c(NC(=O)NC(C)(C)C)nc2n1` in this assay.
A. active

Q. Answer briefly: the call reported for `Cc1cc(Nc2nc(N[C@@H](C)c3ccc(F)cc3)c(C#N)cc2F)n[nH]1` in this assay.
A. active

Q. Answer briefly: the call reported for CC(NCc1ccc2c(c1)nc(NC(=O)c1ccc(-c3cn[nH]c3)s1)n2CC(C)(C)O)C(C)(C)C (stereo not drawn) in this assay.
A. active

Q. Answer briefly: the call reported for `CC(C)(C)OC(=O)Nc1ccc(-c2cc(C(=O)NCCCCCCC(=O)NO)no2)cc1` in this assay.
A. active

Q. Answer briefly: the call reported for COc1ccc(-c2cc3c(C)nc(N)nc3n(C3CCC(OCCO)CC3)c2=O)cn1 (stereo not drawn) in this assay.
A. active

Q. Answer briefly: the call reported for `COc1c(OCCCN2CCOCC2)ccc2c3n(c(=NC(=O)c4cnc(N)nc4)nc12)CCN3` in this assay.
A. active

Q. Answer briefly: the call reported for `O=C(CCCCCCC(=O)Nc1ccc([C@H]2O[C@@H](CSc3nc(-c4ccccc4)c(-c4ccccc4)o3)C[C@@H](c3ccc(CO)cc3)O2)cc1)NO` in this assay.
A. active

Q. Answer briefly: the call reported for `Cc1cc(Nc2ncnc3ccc(-c4ccc(CNCCS(C)(=O)=O)o4)cc23)ccc1Oc1ccn2ncnc2c1` in this assay.
A. active

Q. Answer briefly: the call reported for `O=C(Nc1cc(C(F)(F)F)cc(C(F)(F)F)c1)c1cc(Cl)ccc1O` in this assay.
A. active

Q. Answer briefly: the call reported for `CN[C@H]1CCc2cc(OC)c(OC)c(OC)c2-c2ccc(OC)c(=O)cc21` in this assay.
A. inactive

Q. Answer briefly: the call reported for `COc1cc(Nc2ncc(F)c(Nc3ccc4c(n3)N(COP(=O)(O)O)C(=O)C(C)(C)O4)n2)cc(OC)c1OC` in this assay.
A. active

Q. Answer briefly: the call reported for `Cn1c(CNc2ccc(C(=N)N)cc2)nc2cc(C(=O)N(CCC(=O)O)c3ccccn3)ccc21` in this assay.
A. inactive

Q. Answer briefly: the call reported for `O=C(CCCCCCNC(=O)c1cnc(N(c2ccccc2)c2ccccc2)nc1)NO` in this assay.
A. active

Q. Answer briefly: the call reported for `CC(C)Nc1cc(C(F)(F)F)cc2nc(NC(=O)c3cccnc3)nn12` in this assay.
A. inactive

Q. Answer briefly: the call reported for `Nc1ccccc1NC(=O)c1ccc(CNc2nccc(-c3cccnc3)n2)cc1` in this assay.
A. active

Q. Answer briefly: the call reported for `CC=C1NC(=O)[C@H]2CSSCCC=C[C@H](CC(=O)N[C@H](C(C)C)C(=O)N2)OC(=O)[C@H](C(C)C)NC1=O` in this assay.
A. active

Q. Answer briefly: the call reported for `CN(C)Cc1c(C(=O)NCCOc2ccc(C(=O)NO)cc2)oc2ccccc12` in this assay.
A. active
